- experimentalDetails: NCI Yeast Anticancer Drug Screen. Data for the mlh1 rad18 strain (AID 175)
- studyConditions: S. cerevisiae mlh1 rad18 strain growth inhibition; at 5.0 µM (retest, dose inferred, filed as 0.5); active compounds read high
Compounds without any hit were thinned out: in the full panel of roughly 79,000, 15% have a hit.
quantityKind: growth inhibition (%)
Express it in %; write the number only.

Known results for compounds:
>  <compound>
CC(=O)/C(=C\c1c(Cl)cccc1Cl)C(=O)CCN(C)C

>  <unitTag>
%

>  <growth inhibition>
16

$$$$
>  <compound>
COc1ccc(/C(Cl)=C(\c2ccc(OCCN(C)C)cc2)c2ccc(OC(=O)C(C)(C)C)cc2)cc1

>  <unitTag>
%

>  <growth inhibition>
1

$$$$
>  <compound>
O=C(Cc1ccc(C2=NCCN2)cc1[N+](=O)[O-])c1ccc(C2=NCCN2)cc1

>  <unitTag>
%

>  <growth inhibition>
-5

$$$$
>  <compound>
CC(C)(C)C(=O)OCC(=O)c1ccc(-c2ccccc2)cc1

>  <unitTag>
%

>  <growth inhibition>
-4

$$$$

Give the measured growth inhibition of O=[N+]([O-])c1ccc(CO)o1 .
6

Give the measured growth inhibition of Cc1ccc2[nH]c3c(c2c1)CCC/C3=N/N=C(N)N .
29

Give the measured growth inhibition of CC/C(Cl)=N\OC(=O)Nc1ccc(F)c(Cl)c1 .
-8

Give the measured growth inhibition of O=c1oc(-c2ccc(Cl)cc2[N+](=O)[O-])nc2ccccc12 .
-23

Give the measured growth inhibition of CCC(c1ccc(O)cc1)C(CC)c1ccc(OCC(N)=O)cc1 (stereo unspecified) .
20

Give the measured growth inhibition of CC(=O)O[C@H]1CC[C@@]2(C)C(CC[C@]3(C)C2CC=C2[C@@H]4CC(C)(C)CC[C@]4(C(=O)NCCN(C)C)CCC23C)C1(C)C (stereo partly specified) .
-2

Give the measured growth inhibition of CC1NS(=O)(=O)N(C)C1=O (stereo unspecified) .
2

###

- experimentalDetails: NCI Yeast Anticancer Drug Screen. Data for the mec2-1 strain (AID 157)
- studyConditions: S. cerevisiae mec2-1 strain, at 5.0 µM (retest, dose inferred, filed as 0.5), active compounds read high
Compounds without any hit were thinned out: in the full panel of roughly 79,000, 15% have a hit.
Please use label 1 whenever growth inhibition is not below 40%, and label 0 whenever it is.

// known answers, use as guide
>  <compound>
Cn1cnc([N+](=O)[O-])c1Sc1nnnn1-c1ccccc1

>  <category>
label 0

$$$$
>  <compound>
O/N=C(/CCc1ccccc1Cl)c1ccccc1

>  <category>
label 0

$$$$
>  <compound>
O=S(=O)(Nc1ccccc1)c1ccccc1CC(O)(c1ccccc1)c1ccccc1

>  <category>
label 1

$$$$
>  <compound>
CCN(CC)CCOC(=O)Nc1cc(Cl)cc(Cl)c1

>  <category>
label 0

$$$$
>  <compound>
CC(C)CCCC(=O)CCCCCCC(=O)CCN(O)C(=O)C(N)CO (centres undefined)

>  <category>
label 1

$$$$
>  <compound>
CCCCCCCCCCN(CCCCCCCCCC)C(=O)COc1c2cc(C(C)(C)C)cc1Cc1cc(C(C)(C)C)cc(c1OCC(=O)N(CCCCCCCCCC)CCCCCCCCCC)Cc1cc(C(C)(C)C)cc(c1OCC(=O)N(CCCCCCCCCC)CCCCCCCCCC)Cc1cc(C(C)(C)C)cc(c1OCC(=O)N(CCCCCCCCCC)CCCCCCCCCC)C2

>  <category>
label 1

$$$$

In plain terms: is recorded growth inhibition at least 40% for CC(C)CC(CC(C)C)NCC(C)OC(=O)C(c1ccccc1)c1ccccc1 (centres undefined) ?
label 0

In plain terms: is recorded growth inhibition at least 40% for COc1cc(C2C=C(c3ccccc3)Oc3cc4c(cc32)OCO4)cc(OC)c1OC (centres undefined) ?
label 0

###

- experimentalDetails: NCI Yeast Anticancer Drug Screen. Data for the sgs1 mgt1 strain (AID 161);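 further: 0% = growth of cultures given vehicle only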
- studyConditions: S. cerevisiae sgs1 mgt1 strain, at 50.0 µM (retest, dose inferred, filed as 5.0)
This is part of a sample that, as a whole, favours compounds with a hit. Of some 79,000 tested, about 15% had one in any assay. Activity calls are given as the source filed them. Rule as the data show it: active = growth inhibition above about 70%; inactive = the rest.
Can you answer with just one of these options? yes (1) (active), no (0) (inactive)

// known answers, use as guide
>  <molecule>
Cc1c2c(c(C)c3c1OC(C)(C)CC3)OC(C)(C)CC2

>  <category>
no (0)

$$$$
>  <molecule>
COc1ccc(/C=C/c2ccc3ccccc3n2)cc1OC

>  <category>
yes (1)

$$$$
>  <molecule>
Cc1ccc(NC2=CC(=O)C(NO)c3ccccc32)cc1 (stereo not drawn)

>  <category>
no (0)

$$$$

For O=c1c2ccccc2sc2c([N+](=O)[O-])ccc(NCCNCCO)c12 , what call appears in the results of this test?
yes (1)

###

- experimentalDetails: NCI Yeast Anticancer Drug Screen. Data for the mec2-1 strain (AID 157)
- studyConditions: S. cerevisiae mec2-1 strain, at 50.0 µM (retest, dose inferred, filed as 5.0)
This is part of a sample that, as a whole, favours compounds with a hit. Of some 79,000 tested, about 15% had one in any assay. Activity calls are given as the source filed them. Cut-off read from the data, not from the text of the source: active = growth inhibition above about 70%; inactive = the rest.
Can you answer with just one of these options? Y = active, N = inactive

>  <compound>
C=CCC1(OC(C)=O)CC2C(=O)C(=O)C(C1)N2OC(=O)c1ccccc1 (stereo unspecified)

>  <category>
Y

$$$$
>  <compound>
O=c1cc(CSc2ccc(Cl)cc2)occ1O

>  <category>
N

$$$$
>  <compound>
O=C1c2ccccc2S(=O)(=O)CC1Br (stereo unspecified)

>  <category>
Y

$$$$
>  <compound>
CCc1c(C)[nH]c(-c2csc(N)n2)c1C

>  <category>
Y

$$$$
>  <compound>
[N-]=[N+]=CC(=O)CCC(NC(=O)OCc1ccccc1)C(=O)OCc1ccccc1 (stereo unspecified)

>  <category>
Y

$$$$

Please turn your attention to the following entry.
For O=C1c2c(Br)c(Br)c(Br)c(Br)c2C(=O)N1c1nccs1 , what call appears in the results of this test?
Y

###

- experimentalDetails: NCI Yeast Anticancer Drug Screen. Data for the rad50 strain (AID 155);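 further: 0% = growth of vehicle-only cultures of the same strain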
- studyConditions: S. cerevisiae rad50 strain growth inhibition; at 5.0 µM (retest, dose inferred, filed as 0.5)
About 79,000 compounds went through this panel and 15% of them were active in at least one assay; those are over-represented in the sample as a whole. Calls of active or inactive are those of the source. Cut-off read from the data, not from the text of the source: active = growth inhibition above about 70%; inactive = the rest.
Can you answer with just one of these options? 1 (yes) (active), 0 (no) (inactive)

>  <compound>
C/C(=N\NC(=S)Nc1ccc(Cl)cc1)c1nc2ncccc2[nH]1

>  <category>
0 (no)

$$$$
>  <compound>
CC12CCC3c4cc(O)ccc4CCC3C1CCC2O (stereo unspecified)

>  <category>
0 (no)

$$$$
>  <compound>
Cc1cc(C2CCCCC2)n(O)c(=O)c1

>  <category>
1 (yes)

$$$$
>  <compound>
C=CC(=O)c1ccc2c(c1)OCCOCCOCCOCCOCCO2

>  <category>
0 (no)

$$$$
>  <compound>
O=C(/C=C\C(=O)Nc1cccc(N(Cc2ccccc2)Cc2ccccc2)c1)Nc1cccc(N(Cc2ccccc2)Cc2ccccc2)c1

>  <category>
0 (no)

$$$$
>  <compound>
COc1ccc(C=C(C(=O)c2ccccc2)C(=O)c2ccccc2)cc1

>  <category>
0 (no)

$$$$
>  <compound>
CCCC#CCCOC(=O)c1cc([N+](=O)[O-])cc([N+](=O)[O-])c1

>  <category>
0 (no)

$$$$
>  <compound>
Cc1cc(SCC(=O)c2ccccc2)cc(C)[o+]1

>  <category>
0 (no)

$$$$

For S=C(Nc1ccc(Cl)c(Cl)c1)SC1CCCCC1 , what call appears in the results of this test?
0 (no)

For COc1ccc(C2C3=C(CC(C)(C)CC3=O)Oc3cc4c(cc32)OCO4)c(OC)c1 (stereo unspecified) , what call appears in the results of this test?
0 (no)

For S=C(NCCc1ccccc1)N/N=C/c1ccc(Cl)cc1 , what call appears in the results of this test?
0 (no)

###

- experimentalDetails: NCI Yeast Anticancer Drug Screen. Data for the rad50 strain (AID 155);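 further: 0% = growth of vehicle-only cultures of the same strain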
- studyConditions: S. cerevisiae rad50 strain growth inhibition; at 50.0 µM; active compounds read high
Compounds without any hit were thinned out: in the full panel of roughly 79,000, 15% have a hit.
Please use TRUE whenever growth inhibition is not below 80%, and FALSE whenever it is.

// known answers, use as guide
>  <compound>
Cc1nc(Nc2ccc(Cl)cc2)sc1C(=O)Nc1cccc2c(=O)[nH][nH]c(=O)c12

>  <category>
TRUE

$$$$
>  <compound>
C/C(=N\NC(=S)N(C)C)c1cccnn1

>  <category>
TRUE

$$$$
>  <compound>
CCN(CC)C(=O)N1CCN(c2cccc(Cl)c2)CC1

>  <category>
FALSE

$$$$
>  <compound>
CN(C)[C@H]1CC[C@H]2[C@@H]3CCC4C[C@@H](NC(=O)NC(Cc5ccccc5)c5nccs5)CC[C@]4(C)[C@H]3CC[C@]12C (stereo partly drawn)

>  <category>
FALSE

$$$$
>  <compound>
CN(C)c1ccc(/C=C/c2ccnc3ccccc23)c(O)c1

>  <category>
FALSE

$$$$

Please turn your attention to the following entry.
In plain terms: is recorded growth inhibition at least 80% for Nc1cn(C2OC(CC(c3ccccc3)(c3ccccc3)c3ccccc3)C(O)C2O)c(=O)[nH]c1=O (stereo not drawn) ?
FALSE
